Test system: PC-3 multi-cell spheroids, viability
method: Anticancer human tumor PC-3 cell line growth inhibition [IpAb];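 note: spheroids exposed to compounds for 7 days before readout; 100% = DMSO vehicle control wells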
assay_conditions: second compound 1 µM; first compound 3.16 µM; hits give low values
Cut-off 20% on viability, T/C: below means Criterion met, at or above means Criterion not met.

Some solved entries appear below for comparison.
{"compound": "Cn1ncc(Cl)c1-c1cc(C(=O)NC(CN)Cc2cccc(F)c2)sc1Cl (stereo not given) + CC(C)NCC(C(=O)N1CCN(c2ncnc3c2C(C)CC3O)CC1)c1ccc(Cl)cc1", "classification": "Criterion met"}
{"compound": "CCCS(=O)(=O)Nc1ccc(F)c(C(=O)c2c[nH]c3ncc(-c4ccc(Cl)cc4)cc23)c1F + CC(C)NCC(C(=O)N1CCN(c2ncnc3c2C(C)CC3O)CC1)c1ccc(Cl)cc1", "classification": "Criterion not met"}
{"compound": "Cn1nccc1Nc1nccc(-c2ccn(C(CO)c3ccc(Cl)c(F)c3)c(=O)c2)n1 (stereo not given) + CC(C)NCC(C(=O)N1CCN(c2ncnc3c2C(C)CC3O)CC1)c1ccc(Cl)cc1", "classification": "Criterion not met"}

Given the entry Cc1nc(NC(=O)N2CCCC2C(N)=O)sc1-c1ccnc(C(C)(C)C(F)(F)F)c1 (stereo not given) + CC(C)NCC(C(=O)N1CCN(c2ncnc3c2C(C)CC3O)CC1)c1ccc(Cl)cc1 , would its reported viability, T/C be below 20%?
Criterion met

Try the compound Cc1nc(NC(=O)N2CCCC2C(N)=O)sc1-c1ccnc(C(C)(C)C(F)(F)F)c1 (stereo not given) + CCN1CCN(Cc2ccc(Nc3ncc(F)c(-c4cc(F)c5nc(C)n(C(C)C)c5c4)n3)nc2)CC1
Criterion not met

* * *

System: PC-3 multi-cell spheroids, viability
method: Anticancer human tumor PC-3 cell line growth inhibition [IpAb];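 note: spheroids exposed to compounds for 7 days before readout; 100% = DMSO vehicle control wells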
assay_conditions: second compound 1 µM; first compound 0.3 µM; hits give low values
measured_parameter: viability, T/C

{"compound": "CC(=O)c1c(C)c2cnc(Nc3ccc(N4CCNCC4)cn3)nc2n(C2CCCC2)c1=O + CC(C)NCC(C(=O)N1CCN(c2ncnc3c2C(C)CC3O)CC1)c1ccc(Cl)cc1", "assayed_system": "PC-3 multi-cell spheroids, viability", "viability, T/C": "14.8%"}
{"compound": "CC(C)(C)c1cnc(CSc2cnc(NC(=O)C3CCNCC3)s2)o1 + CCN1CCN(Cc2ccc(Nc3ncc(F)c(-c4cc(F)c5nc(C)n(C(C)C)c5c4)n3)nc2)CC1", "assayed_system": "PC-3 multi-cell spheroids, viability", "viability, T/C": "4.97%"}

Could you now consider this next compound?
Recorded viability, T/C for Cn1cnc2c(F)c(Nc3ccc(Br)cc3Cl)c(C(=O)NOCCO)cc21 + CCN1CCN(Cc2ccc(Nc3ncc(F)c(-c4cc(F)c5nc(C)n(C(C)C)c5c4)n3)nc2)CC1 with PC-3 multi-cell spheroids, viability, please?
52.1%

* * *

Tested on: PC-3 multi-cell spheroids, viability
method: Anticancer human tumor PC-3 cell line growth inhibition [IpAb]; active = viability on the fitted dose curve at most 10% of control; inactive = the rest;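 note: spheroids exposed to compounds for 7 days before readout; 100% = DMSO vehicle control wells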
assay_conditions: second compound 1 µM; first compound 0.1 µM
Hello, when you answer, please use one of the following outcomes: active, inactive

Known results for compounds:
{"compound": "Cn1nccc1Nc1nccc(-c2ccn(C(CO)c3ccc(Cl)c(F)c3)c(=O)c2)n1 (configuration not stated) + CCN1CCN(Cc2ccc(Nc3ncc(F)c(-c4cc(F)c5nc(C)n(C(C)C)c5c4)n3)nc2)CC1", "classification": "inactive"}
{"compound": "Cn1ncc(Cl)c1-c1cc(C(=O)NC(CN)Cc2cccc(F)c2)sc1Cl (configuration not stated) + CCN1CCN(Cc2ccc(Nc3ncc(F)c(-c4cc(F)c5nc(C)n(C(C)C)c5c4)n3)nc2)CC1", "classification": "inactive"}
{"compound": "CC(C)n1nc(-c2ccc3oc(N)nc3c2)c2c(N)ncnc21 + CC(C)NCC(C(=O)N1CCN(c2ncnc3c2C(C)CC3O)CC1)c1ccc(Cl)cc1", "classification": "active"}
{"compound": "COc1c(OCCCN2CCOCC2)ccc2c3n(c(=NC(=O)c4cnc(N)nc4)nc12)CCN3 + CCN1CCN(Cc2ccc(Nc3ncc(F)c(-c4cc(F)c5nc(C)n(C(C)C)c5c4)n3)nc2)CC1", "classification": "inactive"}
{"compound": "CC(C)n1nc(-c2ccc3oc(N)nc3c2)c2c(N)ncnc21 + CCN1CCN(Cc2ccc(Nc3ncc(F)c(-c4cc(F)c5nc(C)n(C(C)C)c5c4)n3)nc2)CC1", "classification": "inactive"}

Recorded test call requested for CC1(C)CCC(CN2CCN(c3ccc(C(=O)NS(=O)(=O)c4ccc(NCC5CCOCC5)c([N+](=O)[O-])c4)c(Oc4cnc5[nH]ccc5c4)c3)CC2)=C(c2ccc(Cl)cc2)C1 + CC(C)NCC(C(=O)N1CCN(c2ncnc3c2C(C)CC3O)CC1)c1ccc(Cl)cc1
inactive

Quick one: Cn1ncc(Cl)c1-c1cc(C(=O)NC(CN)Cc2cccc(F)c2)sc1Cl (configuration not stated) + CC(C)NCC(C(=O)N1CCN(c2ncnc3c2C(C)CC3O)CC1)c1ccc(Cl)cc1
inactive

How about this compound: Cc1nc(NC(=O)N2CCCC2C(N)=O)sc1-c1ccnc(C(C)(C)C(F)(F)F)c1 (configuration not stated) + CC(C)NCC(C(=O)N1CCN(c2ncnc3c2C(C)CC3O)CC1)c1ccc(Cl)cc1
inactive

And the next one, C=CCn1c(=O)c2cnc(Nc3ccc(N4CCN(C)CC4)cc3)nc2n1-c1cccc(C(C)(C)O)n1 + CC(C)NCC(C(=O)N1CCN(c2ncnc3c2C(C)CC3O)CC1)c1ccc(Cl)cc1 ?
inactive

Request: Cn1ncnc1[C@H]1c2n[nH]c(=O)c3cc(F)cc(c23)N[C@@H]1c1ccc(F)cc1 + CCN1CCN(Cc2ccc(Nc3ncc(F)c(-c4cc(F)c5nc(C)n(C(C)C)c5c4)n3)nc2)CC1
inactive

What do you have for C=CCn1c(=O)c2cnc(Nc3ccc(N4CCN(C)CC4)cc3)nc2n1-c1cccc(C(C)(C)O)n1 + CCN1CCN(Cc2ccc(Nc3ncc(F)c(-c4cc(F)c5nc(C)n(C(C)C)c5c4)n3)nc2)CC1 ?
inactive

Proceed to Cn1ncnc1[C@H]1c2n[nH]c(=O)c3cc(F)cc(c23)N[C@@H]1c1ccc(F)cc1 + CC(C)NCC(C(=O)N1CCN(c2ncnc3c2C(C)CC3O)CC1)c1ccc(Cl)cc1
inactive
